src = ChEMBL document CHEMBL5038578

Exercise: state measured pEC50 for each of the compounds provided.
test system: Coxsackievirus A21; experiment: Antiviral activity against Human coxsackievirus A21 infected in HeLa cells assessed as reduction in virus-induced cytopathic effect incubated for 3 days by MTS/PMS assay; format: functional, organism-based; conditions: Enterovirus C, 72 h
Answer as the number alone; pEC50 is minus log10 of concentration in mol/L.

Input: Returns the measured pEC50 for the input compound. Input: "CC(C)[C@H](NC(=O)c1cc2ccccc2[nH]1)C(=O)N[C@@H](Cc1ccccc1)C(=O)N[C@H](C=O)C[C@@H]1CCNC1=O"
Output: 6.29

Input: Returns the measured pEC50 for the input compound. Input: "O=C[C@H](C[C@@H]1CCNC1=O)NC(=O)[C@H](Cc1ccccc1)NC(=O)c1cc2ccccc2[nH]1"
Output: 6.37

Input: Returns the measured pEC50 for the input compound. Input: "O=C[C@H](C[C@@H]1CCNC1=O)NC(=O)[C@H](Cc1ccccc1)NC(=O)/C=C/c1ccccc1"
Output: 5.76

Input: Returns the measured pEC50 for the input compound. Input: "COC(=O)/C=C/[C@H](C[C@@H]1CCNC1=O)NC(=O)[C@H](Cc1ccccc1)NC(=O)/C=C/c1ccccc1"
Output: 5.44

----------
assay: AUClast in CD1 mouse at 5 mg/kg, sc measured after 24 hrs by LC-MS/MS analysis; assay type: ADME, organism-based; design: route subcutaneous, dose 5 mg/kg, time 24 hrs; settings: in vivo
endpoint.name: AUC(0-t) at 24 h (ng·h/mL)
The reply should contain only the number, in ng·h/mL.

Input: Returns the measured AUC(0-t) at 24 h for the input compound. Input: "CC(C)[C@H](NC(=O)c1ccc2ccccc2n1)C(=O)N[C@@H](Cc1ccccc1)C(=O)N[C@H](C=O)C[C@@H]1CCNC1=O"
Output: 1320

Input: Returns the measured AUC(0-t) at 24 h for the input compound. Input: "O=C[C@H](C[C@@H]1CCNC1=O)NC(=O)[C@H](Cc1ccccc1)NC(=O)c1cc2ccccc2[nH]1"
Output: 3570

----------
Exercise: state measured Vd for each of the molecules provided.
assay: Volume of distribution at steady state in CD1 mouse at 5 mg/kg, iv measured after 24 hrs by LC-MS/MS analysis; type: ADME, organism-based; conditions: in vivo, read-out: Vdss
The reply should contain only the number, in L/kg.

Input: Returns the measured Vd for the input molecule. Input: "O=C[C@H](C[C@@H]1CCNC1=O)NC(=O)[C@H](Cc1ccccc1)NC(=O)c1cc2ccccc2[nH]1"
Output: 4.12

Input: Returns the measured Vd for the input molecule. Input: "CC(C)[C@H](NC(=O)c1ccc2ccccc2n1)C(=O)N[C@@H](Cc1ccccc1)C(=O)N[C@H](C=O)C[C@@H]1CCNC1=O"
Output: 3.54

----------
test: Cytotoxicity against African green monkey Vero E6 cells assessed as reduction in cell viability incubated for 24 hrs by CCK8 assay; format: toxicity, cell-based, Vero C1008; conditions: chlorocebus sabaeus
Exercise: state measured CC50 at 24 h for each of the compounds provided.
The reply should contain only the number, in µM.

Input: Returns the measured CC50 at 24 h for the input compound. Input: "O=C[C@H](C[C@@H]1CCNC1=O)NC(=O)[C@H](Cc1ccccc1)NC(=O)C1=Cc2cc(Cl)ccc2OC1"
Output: 299

Input: Returns the measured CC50 at 24 h for the input compound. Input: "Cc1nc2ccccc2nc1C(=O)N[C@@H](Cc1ccccc1)C(=O)N[C@H](C=O)C[C@@H]1CCNC1=O"
Output: 603

Input: Returns the measured CC50 at 24 h for the input compound. Input: "O=C[C@H](C[C@@H]1CCNC1=O)NC(=O)[C@H](Cc1ccccc1)NC(=O)c1ccc2ccccc2n1"
Output: 627

Input: Returns the measured CC50 at 24 h for the input compound. Input: "CC(C)[C@H](NC(=O)c1ccc2ccccc2n1)C(=O)N[C@@H](Cc1ccccc1)C(=O)N[C@H](C=O)C[C@@H]1CCNC1=O"
Output: 604

Input: Returns the measured CC50 at 24 h for the input compound. Input: "O=C[C@H](C[C@@H]1CCNC1=O)NC(=O)[C@H](Cc1ccccc1)NC(=O)c1ccc2ccc(Br)cc2n1"
Output: 823

Input: Returns the measured CC50 at 24 h for the input compound. Input: "O=C[C@H](C[C@@H]1CCNC1=O)NC(=O)[C@H](Cc1ccccc1)NC(=O)c1cc2ccccc2[nH]1"
Output: 809
